Reference source: paper PMC9352680

Biological target: T1, PUF4 RNA-binding domain (Saccharomyces cerevisiae, UniProt P25339 537-888)
T1 sequence: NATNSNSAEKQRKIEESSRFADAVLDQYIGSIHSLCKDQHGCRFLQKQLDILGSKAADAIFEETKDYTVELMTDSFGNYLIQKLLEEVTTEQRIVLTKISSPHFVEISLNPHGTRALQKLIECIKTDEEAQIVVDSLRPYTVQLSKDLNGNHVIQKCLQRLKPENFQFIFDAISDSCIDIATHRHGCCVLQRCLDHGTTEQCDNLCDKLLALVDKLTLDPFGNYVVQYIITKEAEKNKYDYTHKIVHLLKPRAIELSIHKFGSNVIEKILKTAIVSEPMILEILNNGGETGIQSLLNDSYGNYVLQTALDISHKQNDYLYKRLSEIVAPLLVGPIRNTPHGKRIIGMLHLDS
Assay: Mg; RNA-MaP; 20 mM Na-HEPES pH 7.4, 30 mM KOAc, 0.75 mM MgCl2, 0.1% Tween-20, 5% glycerol, 0.1 mg/mL BSA, 2 mM DTT; 25 C; 0.0125-409.6 nM protein
Details: tags: N-His6-TEV cleaved; C-SNAP kept, Cy3B-labelled; label: tethered on chip by stalled RNA polymerase
ASSAY_METRIC: log10 Kd (log10 of the value in nM)

>  <BINDER>
UCUCUUUGUAUAUUCUUAUCUCUU (ssRNA) [Ie_S1_P4E.1_K4.1_C4.1_H4.1_A4.1_[+6TTC]_F4.1_T4.1]

>  <log10 Kd>
0.82

$$$$
>  <BINDER>
Ib_S2_P4E.1_K4.1_C4.1_H4.1_[A4C]_A4.1_[T7G]_F4.1_T4.1 (ssRNA) RNA: UUUGAUUAAUAUGAUAUCGUUCUUUCUUGUCUAGUAUUCUUUCUCGAUAUCAUAUUAAUCUUU

>  <log10 Kd>
1.70

$$$$
>  <BINDER>
Ib_S4_P3E.1_K3.1_C3.1_H3.1_[A4C]_A3.1_[A6G]_F3.1_T3.1 (ssRNA) RNA: UUUGACAACUGAUCGUUCUUUCUUGUCUGUAUUCUUUCUCGAUCAGUUGUCUUU

>  <log10 Kd>
1.61

$$$$
>  <BINDER>
Ib_S4_P5E.1_K5.1_C5.1_H5.1_[T3C]_A5.1_F5.1_[A10C]_T5.1 (ssRNA) RNA: UUUGACAACUGAUCGUUCUUUCUUGCAUUAUUCUUCUUUCUCGAUCAGUUGUCUUU

>  <log10 Kd>
3.25

$$$$
>  <BINDER>
Id_ii_S2_P4E.2_K4.1_C4.2_[C-2T]_H4.1_A4.1_F4.1_T4.2_[G10T]_[T11G] (ssRNA) RNA: UUUGAUUAAUAUGAUAUCGUUCUUUCUUUUGUAUAUUAUGUUCUUUCUCGAUAUCAUAUUAAUCUUU

>  <log10 Kd>
-0.38

$$$$
>  <BINDER>
UCUCUUUAUACUAUUAUCUCUU (ssRNA) [Ib_S1_P5E.1_K5.1_C5.1_H5.1_[G2A]_A5.1_[T5C]_F5.1_T5.1]

>  <log10 Kd>
2.52

$$$$
